Test system: OVCAR-5 complex spheroids, viability
PROTOCOL DESCRIPTION: Anticancer human tumor OVCAR-5 cell line growth inhibition;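 also: spheroids exposed to agents for seven days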;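 as to viability, T/C: 100% = DMSO vehicle control wells viability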
CONDITION LABEL: second compound 3.16 µM; first compound 0.01 µM; stronger effect = lower value
The label Condition met is reserved for viability, T/C strictly under 80%; Condition not met covers values equal to or above it.

[[record]]
compound = "Nc1ncn(C2CC(O)C(CO)O2)c(=O)n1 (stereo not given) + NC1CCC(NC2CC2c2ccccc2)CC1"
classification = "Condition not met"

[[record]]
compound = "Nc1ncn(C2CC(O)C(CO)O2)c(=O)n1 (stereo not given) + NC1CC1c1ccc(-c2cccc(O)c2)cc1"
classification = "Condition not met"

[[record]]
compound = "O=C(C=Cn1cnc(-c2cc(C(F)(F)F)cc(C(F)(F)F)c2)n1)NNc1cnccn1 + NC1CC1c1ccc(-c2cccc(O)c2)cc1"
classification = "Condition met"

[[record]]
compound = "CC1COCCN1c1cc(-c2ccnn2C)c2ccnc(-c3ccn[nH]3)c2n1 (stereo not given) + NC1CCC(NC2CC2c2ccccc2)CC1"
classification = "Condition not met"


* * *

Tested on: OVCAR-5 complex spheroids, viability
PROTOCOL DESCRIPTION: Anticancer human tumor OVCAR-5 cell line growth inhibition;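 also: spheroids exposed to agents for seven days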;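 as to viability, T/C: 100% = DMSO vehicle control wells viability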
CONDITION LABEL: second compound 3.16 µM; first compound 10 µM; stronger effect = lower value
# reported viability, T/C; entries follow
MEASURED METRIC: viability, T/C (%)

[[record]]
compound = "COc1ccc([C@@H](O)c2cc(-c3ncnc4cc(N5CCOCC5)ccc34)c(F)cc2Cl)nn1 + NC1CC1c1ccc(-c2cccc(O)c2)cc1"
system_under_test = "OVCAR-5 complex spheroids, viability"
measured_metric = "viability, T/C"
measured_value = 15.9

[[record]]
compound = "O=C(c1cc(Cc2n[nH]c(=O)c3ccccc23)ccc1F)N1CCN(C(=O)C2CC2)CC1 + NC1CCC(NC2CC2c2ccccc2)CC1"
system_under_test = "OVCAR-5 complex spheroids, viability"
measured_metric = "viability, T/C"
measured_value = 74.2

[[record]]
compound = "CC1COCCN1c1cc(C2(S(C)(=N)=O)CC2)nc(-c2ccnc3[nH]ccc23)n1 (centres undefined) + NC1CCC(NC2CC2c2ccccc2)CC1"
system_under_test = "OVCAR-5 complex spheroids, viability"
measured_metric = "viability, T/C"
measured_value = 37.1

[[record]]
compound = "CC(C)c1c(-c2ccccc2)nc2c(C#N)c[nH]n2c1=O + NC1CCC(NC2CC2c2ccccc2)CC1"
system_under_test = "OVCAR-5 complex spheroids, viability"
measured_metric = "viability, T/C"
measured_value = 93.5


* * *

Tested on: OVCAR-5 complex spheroids, viability
PROTOCOL DESCRIPTION: Anticancer human tumor OVCAR-5 cell line growth inhibition;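 also: spheroids exposed to agents for seven days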
CONDITION LABEL: curve of first compound; second compound 0.316 µM
Text: Multicellular complex tumor spheroid response to LSD1 Inhibitor Iadademstat in combination with a variety of drugs and investigational agents in selected tumor cell lines The current study was undertaken to assess response to LSD1 inhibitors in combination with standard-of-care drugs and investigational agents in solid tumor complex spheroid models as well as in the K-562 leukemia. […] Compounds. […] If the clinical Cmax for an agent had not been determined, the highest concentration tested was 10 microM. […]
pIC50: −log10 of the molar value.
Form field: pIC50 (one value per entry).
MEASURED METRIC: pIC50

[[record]]
molecule = "Nc1ncn(C2CC(O)C(CO)O2)c(=O)n1 (configuration not stated) + NC1CC1c1ccc(-c2cccc(O)c2)cc1"
measured_metric = "pIC50"
prefix_operator = "<"
measured_value = 6.00

[[record]]
molecule = "Cn1ncnc1C1c2n[nH]c(=O)c3cc(F)cc(c23)NC1c1ccc(F)cc1 (configuration not stated) + NC1CC1c1ccc(-c2cccc(O)c2)cc1"
measured_metric = "pIC50"
prefix_operator = "<"
measured_value = 7.00

[[record]]
molecule = "NS(=O)(=O)OCC1CC(n2ccc3c(NC4CCc5ccccc54)ncnc32)CC1O (configuration not stated) + NC1CC1c1ccc(-c2cccc(O)c2)cc1"
measured_metric = "pIC50"
prefix_operator = "="
measured_value = 6.75

[[record]]
molecule = "COc1ccc([C@@H](O)c2cc(-c3ncnc4cc(N5CCOCC5)ccc34)c(F)cc2Cl)nn1 + NC1CC1c1ccc(-c2cccc(O)c2)cc1"
measured_metric = "pIC50"
prefix_operator = "="
measured_value = 6.13

[[record]]
molecule = "COc1cc(C2c3cc4c(cc3C(OC3OC5COC(C)OC5C(O)C3O)C3COC(=O)C23)OCO4)cc(OC)c1O (configuration not stated) + NC1CC1c1ccc(-c2cccc(O)c2)cc1"
measured_metric = "pIC50"
prefix_operator = "="
measured_value = 6.30

[[record]]
molecule = "Nc1ncn(C2CC(O)C(CO)S2)c(=O)n1 (configuration not stated) + NC1CC1c1ccc(-c2cccc(O)c2)cc1"
measured_metric = "pIC50"
prefix_operator = "<"
measured_value = 6.52

[[record]]
molecule = "CC1COCCN1c1cc(-c2ccnn2C)c2ccnc(-c3ccn[nH]3)c2n1 (configuration not stated) + NC1CCC(NC2CC2c2ccccc2)CC1"
measured_metric = "pIC50"
prefix_operator = "="
measured_value = 7.21


* * *

Overview of recorded viability, T/C for various compounds
Tested on: OVCAR-5 complex spheroids, viability
PROTOCOL DESCRIPTION: Anticancer human tumor OVCAR-5 cell line growth inhibition;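 also: spheroids exposed to agents for seven days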;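 as to viability, T/C: 100% = DMSO vehicle control wells viability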
CONDITION LABEL: second compound 0.1 µM; first compound 0.000949 µM; stronger effect = lower value
MEASURED METRIC: viability, T/C

[[record]]
compound = "CCc1c2c(nc3ccc(O)cc13)-c1cc3c(c(=O)n1C2)COC(=O)[C@]3(O)CC + NC1CC1c1ccc(-c2cccc(O)c2)cc1"
measured_value = "33%"

[[record]]
compound = "Nc1ncn(C2CC(O)C(CO)S2)c(=O)n1 (stereo unspecified) + NC1CCC(NC2CC2c2ccccc2)CC1"
measured_value = "119%"

[[record]]
compound = "Nc1ncn(C2CC(O)C(CO)S2)c(=O)n1 (stereo unspecified) + NC1CC1c1ccc(-c2cccc(O)c2)cc1"
measured_value = "100%"

[[record]]
compound = "CCc1c2c(nc3ccc(O)cc13)-c1cc3c(c(=O)n1C2)COC(=O)[C@]3(O)CC + NC1CCC(NC2CC2c2ccccc2)CC1"
measured_value = "36.5%"

[[record]]
compound = "Nc1ccn(C2OC(CO)C(O)C2(F)F)c(=O)n1 (stereo unspecified) + NC1CCC(NC2CC2c2ccccc2)CC1"
measured_value = "27.8%"

[[record]]
compound = "Nc1ccn(C2OC(CO)C(O)C2(F)F)c(=O)n1 (stereo unspecified) + NC1CC1c1ccc(-c2cccc(O)c2)cc1"
measured_value = "25.5%"


* * *

Item-by-item account of viability, T/C
System: OVCAR-5 complex spheroids, viability
PROTOCOL DESCRIPTION: Anticancer human tumor OVCAR-5 cell line growth inhibition;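 also: spheroids exposed to agents for seven days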;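 as to viability, T/C: 100% = DMSO vehicle control wells viability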
CONDITION LABEL: second compound 1 µM; first compound 0.1 µM; stronger effect = lower value
MEASURED METRIC: viability, T/C (%)

[[record]]
compound = "CC(C)c1c(-c2ccccc2)nc2c(C#N)c[nH]n2c1=O + NC1CC1c1ccc(-c2cccc(O)c2)cc1"
system_under_test = "OVCAR-5 complex spheroids, viability"
measured_value = 90

[[record]]
compound = "CC1COCCN1c1cc(C2(S(C)(=N)=O)CC2)nc(-c2ccnc3[nH]ccc23)n1 (centres undefined) + NC1CCC(NC2CC2c2ccccc2)CC1"
system_under_test = "OVCAR-5 complex spheroids, viability"
measured_value = 99.5

[[record]]
compound = "Cn1ncnc1C1c2n[nH]c(=O)c3cc(F)cc(c23)NC1c1ccc(F)cc1 (centres undefined) + NC1CCC(NC2CC2c2ccccc2)CC1"
system_under_test = "OVCAR-5 complex spheroids, viability"
measured_value = 94.3

[[record]]
compound = "CC[C@@]1(O)C(=O)OCc2c1cc1n(c2=O)Cc2cc3c(CN(C)C)c(O)ccc3nc2-1 + NC1CC1c1ccc(-c2cccc(O)c2)cc1"
system_under_test = "OVCAR-5 complex spheroids, viability"
measured_value = 18.4


* * *

Tested on: OVCAR-5 complex spheroids, viability
PROTOCOL DESCRIPTION: Anticancer human tumor OVCAR-5 cell line growth inhibition;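 also: spheroids exposed to agents for seven days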;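 as to viability, T/C: 100% = DMSO vehicle control wells viability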
CONDITION LABEL: second compound 10 µM; first compound 0.001 µM; stronger effect = lower value
# viability, T/C listing for each entry below
MEASURED METRIC: viability, T/C

[[record]]
molecule = "Cn1ncnc1C1c2n[nH]c(=O)c3cc(F)cc(c23)NC1c1ccc(F)cc1 (centres undefined) + NC1CCC(NC2CC2c2ccccc2)CC1"
measured_metric = "viability, T/C"
measured_value = "107%"

[[record]]
molecule = "CC[C@@]1(O)C(=O)OCc2c1cc1n(c2=O)Cc2cc3c(CN(C)C)c(O)ccc3nc2-1 + NC1CCC(NC2CC2c2ccccc2)CC1"
measured_metric = "viability, T/C"
measured_value = "85.5%"

[[record]]
molecule = "CC(C)CC(NC(=O)CNC(=O)c1cc(Cl)ccc1Cl)B1OC(=O)CC(CC(=O)O)(C(=O)O)O1 (centres undefined) + NC1CC1c1ccc(-c2cccc(O)c2)cc1"
measured_metric = "viability, T/C"
measured_value = "93.3%"

[[record]]
molecule = "CC[C@@]1(O)C(=O)OCc2c1cc1n(c2=O)Cc2cc3c(CN(C)C)c(O)ccc3nc2-1 + NC1CC1c1ccc(-c2cccc(O)c2)cc1"
measured_metric = "viability, T/C"
measured_value = "75.6%"

